target: human dopamine D2L receptors (long isoform) (Homo sapiens); construct: expressed in transfected cells; experiment: Dopamine D2L receptor binding, displacement of [125I]-iodospiperone; conditions: *Ki(D2L)/Ki(D3), HEK-293 membranes, 0.01 nM [125I]-iodospiperone
// assign Criterion met if Selectivity D3 vs. D2L* falls strictly below 50, else Criterion not met (ties count as Criterion not met)

Completed entries (count: 5):
>  <compound>
Cc1cn(CCCCN2CCN(c3cccc(C(F)(F)F)c3)CC2)c(=O)[nH]c1=O [Example 129]

>  <assigned-label>
Criterion met

$$$$
>  <compound>
CCCc1cc(N2CCN(CCC(C)Cn3cc(C)c(=O)[nH]c3=O)CC2)nc(C(C)(C)C)n1 (stereo not shown) [Example 70]

>  <assigned-label>
Criterion met

$$$$
>  <compound>
C/C(=C\CN1CCN(c2cc(C(F)(F)F)nc(C(C)(C)C)n2)CC1)Cn1cc(C)c(=O)[nH]c1=O [Example 36]

>  <assigned-label>
Criterion not met

$$$$
>  <compound>
Cc1cn(CCCC(C)N2CCN(c3cc(C(F)(F)F)nc(C(C)(C)C)n3)CC2)c(=O)[nH]c1=O (stereo not shown) [Example 54]

>  <assigned-label>
Criterion not met

$$$$
>  <compound>
CC(=O)O.CC(C)(C)c1nc(N2CCN(CCCCn3ccc(C4CC4)nc3=O)CC2)cc(C(F)(F)F)n1 [Example 94]

>  <assigned-label>
Criterion met

$$$$

*Q* Given the entry CCOc1ccn(CCCCN2CCN(c3cc(C(F)(F)F)nc(C(C)(C)C)n3)CC2)c(=O)n1 [Example 85] , would its reported Selectivity D3 vs. D2L* be below 50?
*A* Criterion met

*Q* Given the entry Cc1cn(CC(C)CCN2CCN(c3cc(C(F)(F)F)nc(C(C)(C)C)n3)CC2)c(=O)[nH]c1=O (single isomer, unassigned; (-)) [Example 64] , would its reported Selectivity D3 vs. D2L* be below 50?
*A* Criterion not met

----------
Please consider the recorded pKi for human dopamine D3 receptors (Homo sapiens, UniProt P35462) in what follows.
One number for each entry, as −log10 of the molar value.

>  <compound>
CCOc1ccn(CCCCN2CCN(c3cc(C(F)(F)F)nc(C(C)(C)C)n3)CC2)c(=O)n1

>  <pKi>
8.13

$$$$

For each of the items listed, what is its pKi?
1. CCCc1cc(N2CCN(CCCCn3ccc(-c4cccs4)nc3=O)CC2)nc(C(C)(C)C)n1
2. COc1cc(OC)cc(N2CCN(CCCCn3cc(C)c(=O)[nH]c3=O)CC2)c1
3. Cc1cn(CC(C)CCN2CCN(c3cc(C(F)(F)F)nc(C(C)(C)C)n3)CC2)c(=O)[nH]c1=O (single isomer, unassigned; (-))
4. CCCc1cc(N2CCN(CCCCn3ccc(-c4ccccc4)nc3=O)CC2)nc(C(C)(C)C)n1
5. CC(C)(C)c1nc(N2CCN(CCCCn3ccc(C(F)(F)F)nc3=O)CC2)cc(C(F)(F)F)n1.Cl
6. CCCc1cc(N2CCN(CCCCn3ccc(C(C)C)nc3=O)CC2)nc(C(C)(C)C)n1

*A*
1. 9.01
2. 7.88
3. 8.59
4. 9.27
5. 7.84
6. 8.79

----------
molecular target: human dopamine D2L receptors (long isoform) (Homo sapiens, UniProt P14416); construct: expressed in transfected cells; test: Dopamine D2L receptor binding, displacement of [125I]-iodospiperone; settings: *Ki(D2L)/Ki(D3), HEK-293 membranes, 0.01 nM [125I]-iodospiperone
Sequence (P14416 whole entry, canonical isoform): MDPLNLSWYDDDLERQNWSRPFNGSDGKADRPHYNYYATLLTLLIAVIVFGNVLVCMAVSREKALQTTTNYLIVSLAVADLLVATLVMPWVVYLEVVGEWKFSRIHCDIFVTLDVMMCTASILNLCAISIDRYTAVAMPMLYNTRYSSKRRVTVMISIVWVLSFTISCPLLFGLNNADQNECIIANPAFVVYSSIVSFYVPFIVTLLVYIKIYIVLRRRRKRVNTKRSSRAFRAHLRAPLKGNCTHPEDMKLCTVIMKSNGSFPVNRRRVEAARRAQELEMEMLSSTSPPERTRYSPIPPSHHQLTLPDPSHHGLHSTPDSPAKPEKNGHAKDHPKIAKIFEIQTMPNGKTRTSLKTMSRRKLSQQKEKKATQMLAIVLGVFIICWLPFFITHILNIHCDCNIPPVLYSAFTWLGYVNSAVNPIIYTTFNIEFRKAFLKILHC
Consider the following molecules; for each one, report its Selectivity D3 vs. D2L*.
One number for each entry.

>  <molecule>
Cc1cn(CCCCN2CCN(c3ccc(F)cc3F)CC2)c(=O)[nH]c1=O

>  <number>
30

$$$$
>  <molecule>
CCCc1cc(N2CCN(CCCCn3ccc(-c4cccc(C)c4)nc3=O)CC2)nc(C(C)(C)C)n1

>  <number>
44

$$$$

For each of the items listed, what is its Selectivity D3 vs. D2L*?
1. Cc1cn(CCCCN2CCN(c3ccccc3Cl)CC2)c(=O)[nH]c1=O
2. CCCc1cc(N2CCN(C(C)CCCn3ccc(=O)[nH]c3=O)CC2)nc(C(C)(C)C)n1 (stereo not shown)
3. Cc1ccccc1N1CCN(CCCCn2cc(C)c(=O)[nH]c2=O)CC1
4. CCCc1cc(N2CCN(CCCCn3ccc(-c4ccccc4C)nc3=O)CC2)nc(C(C)(C)C)n1
5. CCCc1cc(N2CCN(CCCCn3ccc(C(C)C)nc3=O)CC2)nc(C(C)(C)C)n1

*A*
1: 45; 2: 28; 3: 30; 4: 111; 5: 59

For each of the items listed, what is its Selectivity D3 vs. D2L*?
1. CCCc1cc(N2CCN(CCCCn3ccc(OCC)nc3=O)CC2)nc(C(C)(C)C)n1
2. Cc1ccn(CCCCN2CCN(c3cc(C(F)(F)F)nc(C(C)(C)C)n3)CC2)c(=O)n1
3. CCc1ccn(CCCCN2CCN(c3cc(C(F)(F)F)nc(C(C)(C)C)n3)CC2)c(=O)n1
4. CCCc1cc(N2CCN(CCCCn3ccc(C(C)(C)C)nc3=O)CC2)nc(C(C)(C)C)n1.Cl

*A*
43
71
45
96

Cited source: patent US8008488B2
